system: Fibroblast; assay: Multiplex assay against human fibroblast; assay type: toxicity, cell-based; conditions: 24 h, 10 µM, compound concentration 10 uM, replicate 2
observedProperty: Population Tubulin-Different-Phenotype (%)
Quick reminder: number only, in %, skip the unit.

Check out these entries, answers already filled in.
Recorded result, CCC(=O)O[C@]1(C(=O)SCF)[C@H](C)C[C@H]2[C@@H]3C[C@H](F)C4=CC(=O)C=C[C@]4(C)[C@@]3(F)[C@@H](O)C[C@@]21C [FLUTICASONE PROPIONATE] , Population Tubulin-Different-Phenotype (%): 25

Recorded result, "Cl.Cl.Nc1ncnc2c1c(-c1cccc(OCc3ccccc3)c1)cn2[C@H]1C[C@@H](CN2CCC2)C1" , Population Tubulin-Different-Phenotype (%): 96

Recorded result, "CC(C)N1CCC(C)(C)c2cc(C#Cc3ccc(C(=O)O)cc3)ccc21" , Population Tubulin-Different-Phenotype (%): 26

Recorded result, CNC(=O)c1cc(Oc2ccc(NC(=O)Nc3cc(C(C)(C)C)nn3-c3ccc4ncccc4c3)c(F)c2)ccn1 [REBASTINIB] , Population Tubulin-Different-Phenotype (%): 44

Recorded result, "Cl.Cl.NC1(c2ccc(-c3nc4ccn5c(=O)[nH]nc5c4cc3-c3ccccc3)cc2)CCC1" , Population Tubulin-Different-Phenotype (%): 16

In the following, a different compound is considered.
Recorded result, CN(C)CCOc1ccc(-c2nc(-c3ccncc3)c(-c3ccc4c(c3)CC/C4=N\O)[nH]2)cc1 [SB590885] , Population Tubulin-Different-Phenotype (%): 37
